solubility at 30 min: recorded values
# ASSAY_PROCEDURE: Solubility in a buffer solution at 50 mM Tris/HCl pH 7.4 (visual inspection)
# Assay type: physicochemical
# EXPERIMENTAL_PARAMETERS: 50 mM Tris/HCl buffer, aqueous buffer, thermodynamic from solid; buffer solution 50 mM Tris/HCl, pH 7.4, ambient temperature, 30 minutes stirring; read-out: Solubility (limit of solubility)
Peptide text beside a SMILES is read from it. * marks the point of attachment. Cbz = O=C(OCc1ccccc1)*

{"COMPOUND": "O=C(N[C@@H](Cc1ccccc1)C(=O)O)c1ccccc1 [CE2, Benzoyl-L- phenylalanine]", "solubility at 30 min": "< 2000 µg/mL"}

# next compound below
Ask: Given the compound O=C(N[C@@H](Cc1ccccc1)C(=O)N[C@@H](Cc1ccccc1)C(=O)O)OCc1ccccc1 [CE1] (Cbz-Phe-Phe-OH) , write its reported solubility at 30 min.
Result: < 2000 µg/mL

###

# ASSAY_PROCEDURE: Solubility in a buffer solution at 50 mM Tris/HCl pH 7.4 (visual inspection)
# Format: physicochemical
# EXPERIMENTAL_PARAMETERS: pH 7.4, thermodynamic from solid; medium not named at this place; sums up Tables 3 and 4 (Tris/HCl buffer and Humalog); read-out: limit of solubility (summary statement)
Peptide text beside a SMILES is read from it. * marks the point of attachment. Cbz = O=C(OCc1ccccc1)*
ASSAY_METRIC: solubility at 30 min

{"COMPOUND": "O=C(N[C@@H](Cc1ccccc1)C(=O)O)c1ccccc1", "solubility at 30 min": "< 2 mg/mL"}

Ask: Given the compound O=C(N[C@@H](Cc1ccccc1)C(=O)N[C@@H](Cc1ccccc1)C(=O)O)OCc1ccccc1 [CE1] (Cbz-Phe-Phe-OH) , write its reported solubility at 30 min.
Result: < 2 mg/mL
